- experimental target: human P2X3 receptor (Homo sapiens (Human), UniProt P56373)
- Sequence (P56373 whole entry): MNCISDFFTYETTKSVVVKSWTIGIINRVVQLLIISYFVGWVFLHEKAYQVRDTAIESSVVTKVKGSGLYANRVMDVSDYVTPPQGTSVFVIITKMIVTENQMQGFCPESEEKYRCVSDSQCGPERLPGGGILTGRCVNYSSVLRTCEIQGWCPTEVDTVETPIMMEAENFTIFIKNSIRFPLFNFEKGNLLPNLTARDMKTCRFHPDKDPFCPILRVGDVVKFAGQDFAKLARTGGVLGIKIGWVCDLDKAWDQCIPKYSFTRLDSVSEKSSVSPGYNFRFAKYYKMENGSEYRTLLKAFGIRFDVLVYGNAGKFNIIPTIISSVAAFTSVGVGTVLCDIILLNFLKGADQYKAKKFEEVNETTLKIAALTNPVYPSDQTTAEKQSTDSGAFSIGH
- assay notes: Evaluation of human P2X3 receptor inhibitory activity (Fluo-3 calcium fluorescence, FDSS 3000, ATP stimulation);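 further: stimulus was 50 nM ATP with fluorescence followed for 3 min, and the response per well was peak post-ATP fluorescence divided by the reading at measurement start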
- Type: cell-based
- experimental context: human P2X3 receptor, Test Example 1
pIC50: −log10 of the molar value.
Would you mind labelling by pIC50? At or over 8 is TRUE, under is FALSE.

INSERT INTO measurements (compound, experimental_target, label_value) VALUES
  ('CC(CO)(CO)Cn1c(=O)[nH]/c(=N\c2ccc(Oc3ccon3)cc2)n(Cc2ccc(F)cc2)c1=O [Compound I-2399]', 'human P2X3 receptor (Homo sapiens (Human), UniProt P56373)', 'FALSE');

Consider now this further compound.
Request: Does the reported pIC50 for CCn1c(=O)[nH]/c(=N\c2ccc(Oc3cccc(C#N)n3)cc2)n(Cc2ccc(Cl)cn2)c1=O [Compound I-2373] fall at or above the 8 mark?
Response: FALSE
